# Test system: mouse BMP2 promoter
# procedure details: High throughput screen (ABA assay): BMP2 promoter-luciferase reporter in 2T3-BMP-2-LUC osteoblast cells
# Assay type: cell-based
# condition description: Mus musculus, Osteoblast; read-out: Luciferase Activity (ED50-μM)
Where a SMILES comes first, the peptide text is derived from it. [ ]: non-standard residue; d: D form. The star is where a group is joined. Nle = CCCC[C@H](N)C(=O)O; Nva = CCC[C@H](N)C(=O)O; Cbz = O=C(OCc1ccccc1)*; OtBu = CC(C)(C)O*
Recorded EC50 values for a group of compounds are listed next.

These recorded examples may help you get a feel for the data.
# compound, tgt, parameter measured, observed value
records = [
    ("CCCC[C@@H](C=O)NC(=O)[C@H](CC(C)C)NC(=O)[C@H](CC(C)C)NC(C)=O [ALLN, N-Acetyl-Leu-Leu-Nle-CHO] (Ac-Leu-Leu-[Nle]-aldehyde)", "mouse BMP2 promoter", "EC50", "10 µM"),
    ("CC(C)C[C@H](NC(=O)[C@H](CC(C)C)NC(=O)[C@H](CC(C)C)NC(=O)OCc1ccccc1)B(O)O", "mouse BMP2 promoter", "EC50", "0.1 µM"),
]

What value of measured EC50 is listed for CC(C)C[C@@H](C=O)NC(=O)[C@@H](CC(C)C)NC(=O)[C@H](CC(C)C)NC(=O)OCc1ccccc1 [MG-132, N-carbobenzoyl-Leu-Leu-Leu-CHO] (Cbz-Leu-[dL]-Leu-aldehyde) ?
0.25 µM

What do you have for CC[C@H](C)[C@H](NC(=O)OCc1ccccc1)C(=O)N[C@@H](CCC(=O)OC(C)(C)C)C(=O)N[C@@H](C)C(=O)N[C@H](C=O)CC(C)C [PSI] (Cbz-IE(OtBu)AL-aldehyde) ?
0.05 µM

What do you have for `CC(=O)N[C@@H](CSC(=O)[C@]1([C@@H](O)C(C)C)NC(=O)[C@H](C)[C@@H]1O)C(=O)O` ?
1 µM

What do you have for CCC[C@@H](C=O)NC(=O)[C@H](CC(C)C)NC(=O)[C@H](CC(C)C)NC(=O)OCc1ccccc1 [MG-115, N-carbobenzoyl-Leu-Leu-Nva-CHO] (Cbz-Leu-Leu-[Nva]-aldehyde) ?
2 µM

* * *

# tgt: 20S thermophila proteasome (Methanosarcina thermophila)
# Construct: purchased CalBiochem, San Diego, Calif
# Sequence (Q9P992 10-210): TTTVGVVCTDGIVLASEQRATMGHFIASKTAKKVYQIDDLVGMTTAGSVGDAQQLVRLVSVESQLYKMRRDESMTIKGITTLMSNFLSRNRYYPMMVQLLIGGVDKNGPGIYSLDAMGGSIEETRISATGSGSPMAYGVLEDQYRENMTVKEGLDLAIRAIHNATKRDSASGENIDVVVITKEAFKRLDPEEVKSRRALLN
# Sequence (Q59565 whole entry partner): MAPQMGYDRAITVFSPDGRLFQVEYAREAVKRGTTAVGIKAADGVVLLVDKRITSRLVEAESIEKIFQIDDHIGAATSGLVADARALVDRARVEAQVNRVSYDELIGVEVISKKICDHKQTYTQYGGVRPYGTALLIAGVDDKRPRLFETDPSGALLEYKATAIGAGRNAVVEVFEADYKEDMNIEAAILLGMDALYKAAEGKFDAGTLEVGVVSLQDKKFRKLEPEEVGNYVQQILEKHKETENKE
# procedure details: biochemical
# condition description: read-out: Proteasome Activity (ED50-μM)
Where a SMILES comes first, the peptide text is derived from it. [ ]: non-standard residue; d: D form. The star is where a group is joined. Nle = CCCC[C@H](N)C(=O)O; Nva = CCC[C@H](N)C(=O)O; Cbz = O=C(OCc1ccccc1)*
parameter measured: EC50

These recorded examples may help you get a feel for the data.
# molecule, EC50
data = [
    ("CC(C)C[C@@H](C=O)NC(=O)[C@@H](CC(C)C)NC(=O)[C@H](CC(C)C)NC(=O)OCc1ccccc1 [MG-132, N-carbobenzoyl-Leu-Leu-Leu-CHO] (Cbz-Leu-[dL]-Leu-aldehyde)", "0.3 µM"),
    ("CCCC[C@@H](C=O)NC(=O)[C@H](CC(C)C)NC(=O)[C@H](CC(C)C)NC(C)=O [ALLN, N-Acetyl-Leu-Leu-Nle-CHO] (Ac-Leu-Leu-[Nle]-aldehyde)", "1.5 µM"),
    ("CC(C)C[C@H](NC(=O)[C@H](CC(C)C)NC(=O)[C@H](CC(C)C)NC(=O)OCc1ccccc1)B(O)O [MG262]", "0.07 µM"),
]

Please find the next molecule below.
What value of measured EC50 is listed for CCC[C@@H](C=O)NC(=O)[C@H](CC(C)C)NC(=O)[C@H](CC(C)C)NC(=O)OCc1ccccc1 [MG-115, N-carbobenzoyl-Leu-Leu-Nva-CHO] (Cbz-Leu-Leu-[Nva]-aldehyde) ?
1 µM
